Values from PubChem BioAssay (NCI)

# System: U251 CNS
# Assay Remarks: NCI-60 one-dose screen, 48 h (100 = growth as untreated, 0 = no growth, -100 = all killed)
# Recorded Conditions: 1 µM
The panel holds about 83,000 compounds, 20% with a hit somewhere; the sample as a whole holds those more often.
Observation Type: growth (%)

# Compound Smiles, Tgt, Assay Value
records = [
    ("CC/C(=C(\\c1ccc(O)cc1)c1ccc(OCCN(C)C(=O)CCOCCNC(=O)c2ccc3c(c2)CN([C@@H]2CCC(=O)NC2=O)C3=O)cc1)c1ccccc1", "U251 CNS", 95.3),
    ("CC/C(=C(\\c1ccc(O)cc1)c1ccc(OCCN(C)C(=O)COCCNC(=O)Cc2ccc3c(c2)CN([C@@H]2CCC(=O)NC2=O)C3=O)cc1)c1ccccc1", "U251 CNS", 97.4),
    ("CC/C(=C(/c1ccc(O)cc1)c1ccc(OCCN(C)C(=O)COCCOCCNC(=O)c2ccc3c(c2)CN([C@@H]2CCC(=O)NC2=O)C3=O)cc1)c1ccccc1", "U251 CNS", 98.3),
    ("CC/C(=C(\\c1ccc(O)cc1)c1ccc(OCCNC)cc1)c1ccccc1", "U251 CNS", 98.6),
    ("CC/C(=C(/c1ccc(O)cc1)c1ccc(OCCN(C)C(=O)COCCOCCNC(=O)Cc2ccc3c(c2)CN([C@@H]2CCC(=O)NC2=O)C3=O)cc1)c1ccccc1", "U251 CNS", 91.9),
]

---

# Test system: KM12 colon
# Assay Remarks: NCI-60 one-dose screen, 48 h
# Recorded Conditions: 10 µM unless noted
The panel holds about 83,000 compounds, 20% with a hit somewhere; the sample as a whole holds those more often. Active and inactive are the calls of the source. How the source made its calls: active means growth percent below 10; inactive means the rest.
Classes used: active, inactive

# Compound, Category Label
records = [
    ("CCc1ccccc1-c1nc(CN[C@@H]2C[C@@H]3C[C@H]([C@H]2C)C3(C)C)c(C)o1", "active"),
    ("O=C(CSc1nc2sc3c(c2c(=O)n1-c1ccc(Cl)cc1)CCCC3)N/N=C/C=C/c1ccccc1", "inactive"),
    ("O=C(Nc1ccc(Br)cc1)Nc1ccc(-c2ccc3c(c2)NC(=O)/C3=C\\c2ccc[nH]2)cc1", "active"),
    ("COc1ccc(-c2nc3ccccc3n2CC(=O)N=Nc2c(O)[nH]c3ccc(Br)cc23)cc1", "inactive"),
    ("Cc1ccc2c(c1)/C(=C/C(=O)c1cc3ccccc3oc1=O)C(=O)N2", "inactive"),
    ("CNS(=O)(=O)N1CCc2c(Br)c3c(c(OC)c2C1CCc1ccccc1)OCO3 (stereo not given)", "active"),
    ("C#CCN(C)CCCOc1ccc(N(CC)C(=O)c2cc(C(C)C)c(O)cc2O)cc1Cl", "active"),
    ("Cc1ccc(C(=O)Nc2cc(-n3cnc(F)c3)cc(C(F)(F)F)c2)cc1C#Cc1cnc2cccnn12", "inactive"),
    ("CC1=C(C)C(=O)C(N2CCSCC2)=CC1=O", "inactive"),
    ("O=C1N/C(=N\\c2nccs2)S/C1=C\\c1ccc([N+](=O)[O-])cc1", "inactive"),
    ("Cc1nn(-c2ccccc2)c2ncn(CC(=O)N/N=C/c3ccccc3O)c(=O)c12", "inactive"),
    ("O=C1Nc2cc(-c3ccc(NS(=O)(=O)c4ccc(F)c(Cl)c4)cc3)ccc2/C1=C/c1ccc[nH]1", "inactive"),
    ("N#Cc1c(-c2ccc(F)cc2)nc(SCc2ccccc2)nc1N1CCNCC1", "active"),
    ("COc1ccc(NC(=O)NN2C(=O)c3ccccc3N(C)C2c2ccc(OC)cc2)cc1 (stereo not given)", "inactive"),
    ("Cc1ccc2nc(SCc3ccccc3F)n(-c3ccccc3)c(=O)c2c1", "inactive"),
    ("C=CCSc1nnc(-c2ccc(-c3nc4ccc(Cl)cc4[nH]3)cc2)o1", "inactive"),
    ("COc1ccc(NC2=C(I)C(=O)C(C)=C(C)C2=O)cc1", "inactive"),
    ("FC(F)(F)CN1CCN(CCn2c(C(F)(F)F)cc3c(Cl)ncnc32)CC1", "inactive"),
    ("COc1ccc(C2=Nc3c(N)nc(N)nc3NC(c3ccc(Oc4nc(Nc5ccc(F)cc5)nc(N(C)C)n4)c(OC)c3)C2)cc1 (stereo not given)", "inactive"),
    ("CCC(=O)c1cc(C(=O)OC)c2ccc3c4ccccc4ccc3n12", "inactive"),
]

---

# System: NCI-H23 lung
# Assay Remarks: NCI-60 one-dose screen, 48 h
# Recorded Conditions: 10 µM unless noted
The panel holds about 83,000 compounds, 20% with a hit somewhere; the sample as a whole holds those more often. The source made the active and inactive calls. Rule for the calls: active = growth percent below 10; inactive = the rest.
Possible outcomes: active, inactive

# Compound Smiles, Tgt, Category Label
data = [
    ("COc1ccc2ccccc2c1/C=C1\\SC(=Nc2ccc(O)cc2)NC1=O", "NCI-H23 lung", "inactive"),
    ("Cc1ccc(-c2cc(-c3ccccc3)[nH]c(=O)c2C#N)cc1", "NCI-H23 lung", "inactive"),
    ("O=C(CSc1nnc(-c2ccc(-c3nc4ccccc4[nH]3)cc2)o1)Nc1ccc(Cl)cc1", "NCI-H23 lung", "active"),
    ("CN1CCN(C(=O)Oc2cc3c(c4ccccc24)[C@H](CCl)CN3C(=O)c2cc3cc(OCCCN4CCC4)ccc3[nH]2)[C@@H]2CSSC[C@H]21", "NCI-H23 lung", "active"),
    ("COc1cc(/C=C/C(=O)c2ccc(S(=O)(=O)NCCNc3nc(N(C)C)nc(N4CCOCC4)n3)cc2)cc(OC)c1OC", "NCI-H23 lung", "active"),
    ("O=C(Cc1c(-c2ccccc2[N+](=O)[O-])n(-c2ncnc3c2c(-c2ccccc2)c(-c2ccccc2)n3Cc2ccccc2)[nH]c1=O)c1ccc(Cl)c(Cl)c1", "NCI-H23 lung", "active"),
    ("COc1ccc(-c2cc(-c3ccccc3)c(C#N)c(=O)[nH]2)cc1S(N)(=O)=O", "NCI-H23 lung", "inactive"),
    ("CCCCCCCCc1cccc(CC(=O)Nc2ccc(C)cc2C(=O)O)c1", "NCI-H23 lung", "inactive"),
]

---

# System: K-562 leukemia
# Assay Remarks: NCI-60 one-dose screen, 48 h
# Recorded Conditions: 10 µM unless noted
Compounds without any hit were thinned out: in the full panel of roughly 83,000, 20% have a hit. Calls of active or inactive are those of the source. The calls were made as follows: active = growth percent below 10; inactive = the rest.
Outcome codes: label 1 = active, label 0 = inactive

# Molecule, Category Label
measured = [
    ("Nc1nc(-c2ccccc2)c(N=Nc2ccc(Cl)cc2Cl)s1", "label 1"),
    ("N#CC1=C(c2ccco2)Nc2c(c(-c3ccccc3)nn2-c2ccccc2)C12C(=O)Nc1ccc(Br)cc12 (stereo not given)", "label 0"),
    ("O=C(Cn1c(-c2ccccc2)nc2ccccc21)N=Nc1c(O)[nH]c2ccc(Cl)cc12", "label 0"),
    ("CCCSc1nnc(-c2c(C)nc3sccn23)o1", "label 0"),
    ("O=C(COc1ccc(/C=C2/C(=O)Nc3ccc(Cl)cc32)cc1)Nc1ccc(Br)cc1", "label 1"),
]

---

# System: NCI-H460 lung
# Assay Remarks: NCI-60 one-dose screen, 48 h
# Recorded Conditions: 10 µM unless noted
This is part of a sample that, as a whole, favours compounds with a hit. Of some 83,000 tested, about 20% had one in any assay. Active and inactive are the calls of the source. How the source made its calls: active means growth percent below 10; inactive means the rest.
Outcome codes: active, inactive

# Compound, Tgt, Category Label
records = [
    ("CCc1ccccc1NC(=O)N/C(N)=N/c1nc2ccccc2s1", "NCI-H460 lung", "inactive"),
    ("CC(C)(C)c1cc(-c2cc(-c3ccccc3)[nH]c(=O)c2C#N)cc(C(C)(C)C)c1", "NCI-H460 lung", "inactive"),
    ("COc1ccc(N=Nc2c(N)nn3c(-c4cc5cc(Br)ccc5oc4=O)ccnc23)cc1", "NCI-H460 lung", "active"),
    ("COc1c(B(O)O)cccc1-c1nc2ccc3cn[nH]c3c2c2c1CCCC2", "NCI-H460 lung", "inactive"),
    ("COc1nc(N)ncc1-c1ccc2ncnc(N3CCc4cc(F)c(Cl)cc43)c2c1", "NCI-H460 lung", "active"),
    ("CC1=C(C)C(=O)C(N2CCSCC2)=CC1=O", "NCI-H460 lung", "inactive"),
    ("CCOC(=O)c1ccc(NC(=S)NC(=O)c2ccc(NC(=O)C(C)C)cc2OC)cc1", "NCI-H460 lung", "inactive"),
    ("CC[C@]12C=CCN3CC[C@]4(C(=C(C(=O)OC)C1)Nc1cc(OC)c([C@@H]5[C@H]6O[C@H]6[C@@]6(CC)CC(C(=O)OC)=C7Nc8cc(OC)ccc8[C@@]78CCN5[C@@H]68)cc14)[C@@H]32", "NCI-H460 lung", "inactive"),
    ("COc1c(F)ccc(C(=O)Nc2ccc3nc(NC(=O)C4CCCN(S(=O)(=O)c5ccc(C(C)(C)C)cc5)C4)sc3c2)c1F (centres undefined)", "NCI-H460 lung", "inactive"),
]
